Measured pKd by item
- Study system: T1, recombinant human IL-23R/Fc chimera (R&D Systems) (human, UniProt Q5VWK5 24-355)
- T1 construct: Bought; also called rhIL23RFc
- T1 sequence (looked up): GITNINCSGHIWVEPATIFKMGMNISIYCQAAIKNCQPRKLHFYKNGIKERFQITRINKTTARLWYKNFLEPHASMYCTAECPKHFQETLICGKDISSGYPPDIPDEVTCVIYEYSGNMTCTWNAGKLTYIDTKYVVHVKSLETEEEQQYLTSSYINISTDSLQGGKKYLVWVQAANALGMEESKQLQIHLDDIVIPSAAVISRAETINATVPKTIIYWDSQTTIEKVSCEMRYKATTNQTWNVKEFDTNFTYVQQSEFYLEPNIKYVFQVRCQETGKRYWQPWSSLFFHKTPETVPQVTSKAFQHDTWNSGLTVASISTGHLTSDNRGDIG
- Assay info: SPR
pKd: −log10 of the molar value.
Endpoint name: pKd

{"Binder": "105-20-1B3 ATRIMER complex (designed binder) EPPTQKPKKIVNAKKDVVNTKMFEELKSRLDTLAQEVALLKEQQALQTVCLKGTKVHMKCFLAFTQTKTFHEASEDCISRGGTLSTPQTGSENDALYEYLRQSVGNEAEIWLGLNGSALTNTWVDMTGARIAYKNWETEITAQPDGGFGYFGENCAVLSGAANGKWFDKRCRDQLPYICQFGIV", "Endpoint name": "pKd", "Experimental value": 9.12}
{"Binder": "001-87.A9E ATRIMER complex (designed binder, Homotrimer of this chain (ATRIMER complex)., not shown: A possible extra N-terminal Ser from the ompA junction is left out) EPPTQKPKKIVNAKKDVVNTKMFEELKSRLDTLAQEVALLKEQQALQTVCLKGTKVHMKCFLAFTQTKTFHEASEDCISRGGTLSTPQTGSENDALYEYLRQSVGNEAEIWLGLNGSALTNTWVDMTGARIAYKNWETEITAQPDGGLGYWGENCAVLSGAANGKWFDKRCRDQLPYICQFGIV", "Endpoint name": "pKd", "Experimental value": 8.72}
{"Binder": "056-41.B5C ATRIMER complex (designed binder, non-covalent homotrimer of the one chain given, not shown: Also the single Ser the vector leaves after the ompA signal) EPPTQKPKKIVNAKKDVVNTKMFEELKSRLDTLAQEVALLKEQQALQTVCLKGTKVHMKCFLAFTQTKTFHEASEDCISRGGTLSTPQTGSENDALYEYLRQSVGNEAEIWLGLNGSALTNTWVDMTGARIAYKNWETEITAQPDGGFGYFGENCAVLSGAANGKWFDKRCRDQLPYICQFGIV", "Endpoint name": "pKd", "Experimental value": 8.99}
{"Binder": "101-51-1A9 ATRIMER complex (designed binder) EPPTQKPKKIVNAKKDVVNTKMFEELKSRLDTLAQEVALLKEQQALQTVCLKGTKVHMKCFLAFTQTKTFHEASEDCISRGGTLSTPQTGSENDALYEYLRQSVGNEAEIWLGLNGSALTNTWVDMTGARIAYKNWEPARQPQPGGGFGYFGENCAVLSGAANGKWFDKRCRDQLPYICQFGIV", "Endpoint name": "pKd", "Experimental value": 9.02}
{"Binder": "101-80-5E8 ATRIMER complex (designed binder) EPPTQKPKKIVNAKKDVVNTKMFEELKSRLDTLAQEVALLKEQQALQTVCLKGTKVHMKCFLAFTQTKTFHEASEDCISRGGTLSTPQTGSENDALYEYLRQSVGNEAEIWLGLNGSALTNTWVDMTGARIAYKNWEPPEPLHPMGGFGVFGENCAVLSGAANGKWFDKRCRDQLPYICQFGIV", "Endpoint name": "pKd", "Experimental value": 9.46}
{"Binder": "105-08-2G7 ATRIMER complex (designed binder) EPPTQKPKKIVNAKKDVVNTKMFEELKSRLDTLAQEVALLKEQQALQTVCLKGTKVHMKCFLAFTQTKTFHEASEDCISRGGTLSTPQTGSENDALYEYLRQSVGNEAEIWLGLNGSPKTGTWVDMTGARIAYKNWETEITAQPDGGFGYFGENCAVLSGAANGKWFDKRCRDQLPYICQFGIV", "Endpoint name": "pKd", "Experimental value": 8.84}
